Quick list: EC50 per entry.
Target: GKRP (Glucokinase Regulatory Protein) with human His-hepatic GK (Homo sapiens, UniProt Q14397)
Sequence (Q14397 whole entry): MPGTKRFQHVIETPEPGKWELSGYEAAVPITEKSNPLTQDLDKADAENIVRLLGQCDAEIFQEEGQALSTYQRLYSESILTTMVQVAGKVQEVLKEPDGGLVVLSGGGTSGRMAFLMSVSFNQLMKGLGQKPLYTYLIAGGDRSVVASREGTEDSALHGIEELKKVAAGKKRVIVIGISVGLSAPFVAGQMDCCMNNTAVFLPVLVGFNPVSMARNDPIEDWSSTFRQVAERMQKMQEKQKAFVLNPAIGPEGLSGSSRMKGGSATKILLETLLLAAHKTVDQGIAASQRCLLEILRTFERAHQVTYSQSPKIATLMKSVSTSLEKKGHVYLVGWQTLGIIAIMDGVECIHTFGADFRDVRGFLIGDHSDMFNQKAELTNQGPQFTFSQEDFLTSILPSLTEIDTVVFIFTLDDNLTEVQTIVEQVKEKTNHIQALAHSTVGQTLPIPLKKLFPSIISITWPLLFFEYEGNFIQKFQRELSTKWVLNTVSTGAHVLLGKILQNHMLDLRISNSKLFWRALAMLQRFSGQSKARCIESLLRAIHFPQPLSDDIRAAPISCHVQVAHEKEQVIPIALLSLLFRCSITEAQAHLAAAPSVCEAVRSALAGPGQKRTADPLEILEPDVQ
Assay: biochemical
Details: GK-GKRP EC50 (LC MS/MS-2)
MEASUREMENT NAME: EC50 (nM)

[
  {
    "COMPOUND": "CC(O)(c1ccc(N2CCN(S(=O)(=O)c3cccs3)C[C@@H]2CN2CC3CCOC3C2)cc1)C(F)(F)F (some centres unmarked)",
    "READOUT NUMBER": 313
  },
  {
    "COMPOUND": "C[C@@H](C[C@H]1CN(S(=O)(=O)c2cccs2)CCN1c1ccc([C@](C)(O)C(F)(F)F)cc1)NC1COC1 (racemic)",
    "READOUT NUMBER": 529
  },
  {
    "COMPOUND": "C[C@H]1CN(S(=O)(=O)c2ccc(N)s2)CCN1c1ncc(C(C)(O)C(F)(F)F)cn1 (mixture of isomers)",
    "READOUT NUMBER": 658
  },
  {
    "COMPOUND": "CC(O)(c1ccc(N2CCN(S(=O)(=O)c3cccs3)C[C@@H]2CN2CC3(COC3)C2)cc1)C(F)(F)F (mixture of isomers)",
    "READOUT NUMBER": 659
  },
  {
    "COMPOUND": "CC(O)(c1ccc(N2CCN(S(=O)(=O)c3cccs3)C[C@@H]2CN2C[C@H]3COC[C@H]3C2)cc1)C(F)(F)F (some centres unmarked)",
    "READOUT NUMBER": 731
  }
]
